Source of measurements: DBAASP

What follows is a record of MIC for Escherichia coli DH5alpha.
Report only the number, with the unit µM understood.

Take a look at these entries with their results.
CC[C@H](C)[C@H](NC(=O)[C@H](CC(C)C)NC(=O)[C@@H](NC(=O)[C@H](CC(C)C)NC(=O)[C@@H](NC(=O)[C@H](CCCCN)NC(=O)[C@@H](N)CCCN=C(N)N)[C@@H](C)CC)[C@@H](C)CC)C(=O)N[C@@H](CCCCN)C(=O)N[C@@H](CCCN=C(N)N)C(=O)N[C@@H](CCCCN)C(=O)O = 16
CC[C@H](C)[C@H](NC(=O)[C@H](CCCN=C(N)N)NC(=O)[C@H](CCCCN)NC(=O)[C@H](Cc1ccccc1)NC(C)=O)C(=O)N[C@H](C(=O)N[C@@H](CCC(N)=O)C(=O)N[C@H](C(=O)N[C@H](C(=O)N[C@@H](CCCCN)C(=O)N[C@@H](CCCCN)C(=O)N[C@@H](Cc1ccccc1)C(=O)N[C@@H](CC(C)C)C(=O)N[C@@H](CCCN=C(N)N)C(N)=O)[C@@H](C)CC)[C@@H](C)CC)C(C)C = 29.6

// below: MIC requested for another compound
// query # query: MIC of entry CC(C)C[C@H](NC(=O)[C@H](C)NC(=O)[C@H](CC(C)C)NC(=O)[C@H](CCCCN)NC(=O)[C@H](Cc1c[nH]c2ccccc12)NC(=O)[C@H](C)NC(=O)[C@H](CCCCN)NC(=O)[C@H](CC(C)C)NC(=O)[C@H](C)NC(=O)[C@H](CC(C)C)NC(=O)[C@H](CCCCN)NC(=O)[C@H](CC(C)C)NC(=O)[C@H](C)NC(=O)[C@H](CC(C)C)NC(=O)[C@@H](N)CCCCN)C(=O)N[C@@H](CCCCN)C(=O)N[C@@H](C)C(=O)N[C@@H](C)C(N)=O
// result 5.2

---

- System: Pseudomonas aeruginosa H1001
- protocol text: ≥ marks a high value that may be exact or a test limit, other limits are often not marked, values filed in µg/mL are converted to µM
endpoint name: MIC (µM)
Report only the number, with the unit µM understood.

CC(C)C[C@H](NC(=O)[C@@H](N)Cc1ccccc1)C(=O)N1CCC[C@H]1C(=O)N[C@@H](CCCCN)C(=O)N[C@@H](CCCCN)C(=O)N[C@@H](Cc1ccccc1)C(=O)N[C@@H](CCCN=C(N)N)C(=O)N[C@@H](Cc1c[nH]c2ccccc12)C(=O)N[C@@H](Cc1c[nH]c2ccccc12)C(=O)N[C@@H](CCCCN)C(=O)N[C@@H](Cc1ccc(O)cc1)C(=O)N[C@@H](CCCN=C(N)N)C(=O)N[C@@H](CCCCN)C(N)=O [FLPKKFRWWKYRK] = 8.5

// query # query: MIC of entry CC[C@H](C)[C@H](NC(=O)[C@H](CCSC)NC(=O)[C@H](Cc1c[nH]c2ccccc12)NC(=O)[C@H](Cc1c[nH]c2ccccc12)NC(=O)[C@H](CC(C)C)NC(=O)[C@@H](N)CCCCN)C(=O)N[C@@H](CCCN=C(N)N)C(=O)N[C@@H](CCCN=C(N)N)C(=O)N[C@@H](Cc1c[nH]c2ccccc12)C(=O)O [KLWWMIRRW]
// result 5.82

---

What follows is a record of MIC for Klebsiella pneumoniae ATCC 700603.
Report only the number, with the unit µM understood.

// query # query: MIC of entry CC(C)C[C@H](NC(=O)[C@H](C)NC(=O)CNC(=O)[C@H](CC(C)C)NC(=O)[C@H](CC(C)C)NC(=O)[C@H](CCCCN)NC(=O)[C@H](CCCCN)NC(=O)[C@H](CC(C)C)NC(=O)[C@H](CC(C)C)NC(=O)[C@H](CCCCN)NC(=O)[C@H](CC(C)C)NC(=O)[C@H](CC(C)C)NC(=O)[C@@H](N)CCCCN)C(=O)NCC(N)=O
// result 5

// query # query: MIC of entry CC[C@H](C)[C@@H]1NC(=O)CNC(=O)[C@H](CCCN=C(N)N)NC(=O)[C@H](Cc2ccc(O)cc2)NC(=O)[C@@H](NC(=O)[C@@H](NC(=O)[C@H](CCCN=C(N)N)NC(=O)[C@H](Cc2ccccc2)NC(=O)[C@H](CO)NC(=O)[C@H](Cc2c[nH]c3ccccc23)NC(=O)[C@@H](N)CCCCN)C(C)C)CSSC[C@@H](C(=O)N[C@@H](Cc2ccc(O)cc2)C(=O)N[C@@H](CCCN=C(N)N)C(=O)N[C@@H](CCCN=C(N)N)C(=O)N[C@@H](C)C(=O)N[C@@H](CCCN=C(N)N)C(=O)O)NC1=O
// result 0.901

// query # query: MIC of entry CC[C@H](C)[C@H](NC(=O)[C@H](CCCNC(=N)N)NC(=O)CNC(=O)[C@H](CC(C)C)NC(=O)[C@H](Cc1ccccc1)NC(=O)[C@H](CCCCN)NC(=O)[C@H](CO)NC(=O)[C@H](Cc1ccccc1)NC(=O)[C@H](Cc1c[nH]c2ccccc12)NC(=O)[C@H](CCC(N)=O)NC(=O)[C@@H](NC(=O)[C@@H](N)Cc1ccccc1)C(C)C)C(=O)N[C@@H](CC(C)C)C(N)=O
// result 16

---

What follows is a record of MIC for Staphylococcus aureus ATCC 6538.
Report only the number, with the unit µM understood.

CC[C@H](C)[C@H](NC(=O)CN)C(=O)N[C@@H](Cc1cnc[nH]1)C(=O)N[C@@H](CC(=O)O)C(=O)N[C@H](C(=O)N[C@@H](CC(C)C)C(=O)N[C@@H](CCCCN)C(=O)N[C@@H](Cc1ccc(O)cc1)C(=O)N[C@@H](C)C(=O)N[C@@H](CCCCN)C(=O)N1CCC[C@H]1C(=O)N[C@@H](CO)C(N)=O)[C@@H](C)CC [GIHDILKYAKPS] = 10

// below: MIC requested for another molecule
// query Form field - read-out: MIC; system: Staphylococcus aureus ATCC 6538; submitted item: CC[C@H](C)[C@H](NC(=O)[C@H](CO)NC(=O)[C@H](CCCCN)NC(=O)[C@@H](NC(=O)CNC(=O)[C@H](CCCCN)NC(=O)[C@H](Cc1c[nH]c2ccccc12)NC(=O)[C@H](CC(C)C)NC(=O)[C@H](CCCCN)NC(=O)CNC(=O)[C@H](CC(C)C)NC(=O)[C@@H](NC(=O)[C@@H](N)CC(C)C)[C@@H](C)CC)C(C)C)C(=O)N[C@@H](Cc1ccccc1)C(N)=O [LILGKLWKGVKSIF]
// result 7.8

---

What follows is a record of MIC for Escherichia coli.
endpoint name: MIC (µM)

Take a look at these entries with their results.
CC[C@H](C)[C@H](NC(=O)[C@H](CCCCN)NC(=O)[C@H](Cc1c[nH]c2ccccc12)NC(=O)[C@H](CCCCN)NC(=O)[C@@H](NC(=O)[C@H](CCCCN)NC(=O)[C@H](Cc1c[nH]c2ccccc12)NC(=O)[C@H](CCCCN)NC(=O)[C@@H](NC(=O)[C@H](CCCCN)NC(=O)[C@@H](N)Cc1c[nH]c2ccccc12)[C@@H](C)CC)[C@@H](C)CC)C(=O)N[C@@H](CCCCN)C(N)=O = 2
CC(C)C[C@H](NC(=O)[C@H](CCCNC(=N)N)NC(=O)CNC(=O)CNC(=O)[C@@H](N)CCCNC(=N)N)C(=O)N[C@H]1CSSC[C@@H](C(=O)N[C@H](C(=O)NCC(=O)N[C@@H](CCCNC(=N)N)C(N)=O)C(C)C)NC(=O)[C@H](C(C)C)NC(=O)[C@@H]2CSSC[C@H](NC(=O)[C@H](Cc3ccc(O)cc3)NC1=O)C(=O)N[C@@H](CCCNC(=N)N)C(=O)N1CCC[C@H]1C(=O)N[C@@H](CCCNC(=N)N)C(=O)N[C@@H](Cc1ccccc1)C(=O)N2 = 1.38
CC(C)C[C@H](NC(=O)[C@H](C)NC(=O)[C@H](CCCCN)NC(=O)[C@H](CC(C)C)NC(=O)[C@H](CC(C)C)NC(=O)[C@H](Cc1c[nH]c2ccccc12)NC(=O)[C@H](CCCCN)NC(=O)[C@H](CC(C)C)NC(=O)[C@H](C)NC(=O)[C@H](C)NC(=O)[C@H](CCCCN)NC(=O)[C@H](C)NC(=O)[C@H](CC(C)C)NC(=O)[C@H](CC(C)C)NC(=O)[C@@H](N)CCCCN)C(=O)N[C@@H](CCCCN)C(=O)N[C@@H](C)C(=O)N[C@@H](C)C(N)=O = 6.2

P = CC[C@H](C)[C@H](NC(=O)[C@H](CO)NC(=O)CNC(=O)[C@H](CCCN=C(N)N)NC(=O)[C@@H](NC(=O)[C@H](CO)NC(=O)[C@@H](NC(=O)CNC(=O)[C@H](CO)NC(=O)[C@H](CC(C)C)NC(=O)[C@H](CC(C)C)NC(=O)CN)[C@@H](C)O)C(C)C)C(=O)O
Q = CC(C)C[C@H](NC(=O)CNC(=O)[C@H](CC(C)C)NC(=O)[C@@H](N)Cc1ccccc1)C(=O)N[C@@H](CC(C)C)C(=O)N[C@@H](Cc1ccccc1)C(=O)N[C@@H](CCCCN)C(=O)N[C@H](C(=O)N[C@@H](C)C(=O)N[C@@H](CO)C(=O)N[C@@H](CCCCN)C(=O)O)C(C)C
// query Could you kindly indicate whether P or Q has the higher MIC value? Respond using the label that marks the chosen record.
// result Q
(Q: 164 µM, P: 31.4 µM)
